Lab note: Ki readings collected with A1–T1 (Staphylococcus aureus, UniProt A0A0H3JX00) for the following molecules.

>  <MOLECULE>
Nc1ncnc2c1ncn2[C@@H]1O[C@H](COS(=O)(=O)NC(=O)[C@@H](N)Cc2ccccc2)[C@@H](O)[C@H]1O

>  <VALUE_QUALIFIER>
>

>  <Ki [µM]>
100

$$$$
>  <MOLECULE>
CC(C)[C@H](N)C(=O)NS(=O)(=O)OC[C@H]1O[C@@H](n2cnc3c(N)ncnc32)[C@H](O)[C@@H]1O [Val-AMS, 5′-O-[N-(valinyl)sulfamoyl]adenosine]

>  <VALUE_QUALIFIER>
=

>  <Ki [µM]>
0.063

$$$$
